Could you please report measured 96 h LC50 (-log10 mol/L) for the items listed next?
test system: Pimephales promelas; assay: 96 h LC50 (-log10 mol/L); higher = more toxic
Keep the answer to the number alone.

Q) Dear colleague, I am looking for the recorded 96 h LC50 (-log10 mol/L) of the following compound: `C=Cn1c2ccccc2c2ccccc21`
A) 7.81

Q) Dear colleague, I am looking for the recorded 96 h LC50 (-log10 mol/L) of the following compound: `O=[N+]([O-])c1ccc(Oc2ccccc2)cc1`
A) 4.91

Q) Dear colleague, I am looking for the recorded 96 h LC50 (-log10 mol/L) of the following compound: `CCCCCCCCCCCC(C)=O`
A) 5.74

Q) Dear colleague, I am looking for the recorded 96 h LC50 (-log10 mol/L) of the following compound: `CC(C)=O`
A) 0.854

Q) Dear colleague, I am looking for the recorded 96 h LC50 (-log10 mol/L) of the following compound: `Cc1ccc(N=C=O)cc1N=C=O`
A) 3.02

Q) Dear colleague, I am looking for the recorded 96 h LC50 (-log10 mol/L) of the following compound: `CCCCOC(=O)CCCCC(=O)OCCCC`
A) 4.85

----------
Could you please report measured 48 h IGC50 (-log10 mol/L) for the items listed next?
tested on: Tetrahymena pyriformis; assay: 48 h IGC50 (-log10 mol/L); higher = more toxic

Q) Dear colleague, I am looking for the recorded 48 h IGC50 (-log10 mol/L) of the following compound: `CCCCCCBr`
A) 3.94

Q) Dear colleague, I am looking for the recorded 48 h IGC50 (-log10 mol/L) of the following compound: `Nc1cccc([N+](=O)[O-])c1`
A) 3.03

Q) Dear colleague, I am looking for the recorded 48 h IGC50 (-log10 mol/L) of the following compound: `O=[N+]([O-])c1ccc(O)c(Cl)c1`
A) 4.18

Q) Dear colleague, I am looking for the recorded 48 h IGC50 (-log10 mol/L) of the following compound: `O=C(c1ccccc1)c1ccccc1`
A) 3.87

Q) Dear colleague, I am looking for the recorded 48 h IGC50 (-log10 mol/L) of the following compound: `COP(=O)(OC)OC`
A) 1.18

Q) Dear colleague, I am looking for the recorded 48 h IGC50 (-log10 mol/L) of the following compound: `CCc1ccc(Br)cc1`
A) 3.67

Q) Dear colleague, I am looking for the recorded 48 h IGC50 (-log10 mol/L) of the following compound: `Cc1ccc(N)cc1C`
A) 2.84

Q) Dear colleague, I am looking for the recorded 48 h IGC50 (-log10 mol/L) of the following compound: `CC(=O)c1c(C)c[nH]c1C`
A) 2.68

Q) Dear colleague, I am looking for the recorded 48 h IGC50 (-log10 mol/L) of the following compound: `CCCCC=O`
A) 2.98

Q) Dear colleague, I am looking for the recorded 48 h IGC50 (-log10 mol/L) of the following compound: C=CC(=O)OCC(C)O (configuration not stated)
A) 3.65

Q) Dear colleague, I am looking for the recorded 48 h IGC50 (-log10 mol/L) of the following compound: `NCC(O)CN`
A) 1.57

Q) Dear colleague, I am looking for the recorded 48 h IGC50 (-log10 mol/L) of the following compound: `COc1cc(O)ccc1O`
A) 5.2

----------
tested on: Pimephales promelas; test: 96 h LC50 (-log10 mol/L); higher = more toxic
Outcome label depends on 96 h LC50 (-log10 mol/L) relative to 4: at/above gives 1, below gives -1.

Q) Say whether `ClCCCCCCl` shows 96 h LC50 (-log10 mol/L) of 4 or more.
A) -1

Q) Say whether `C#CCO` shows 96 h LC50 (-log10 mol/L) of 4 or more.
A) 1

Q) Say whether `CC=O` shows 96 h LC50 (-log10 mol/L) of 4 or more.
A) -1

Q) Say whether `CCCCOc1ccccc1` shows 96 h LC50 (-log10 mol/L) of 4 or more.
A) 1

Q) Say whether `C=CC(N)=O` shows 96 h LC50 (-log10 mol/L) of 4 or more.
A) -1

Q) Say whether `CCSCCSCC` shows 96 h LC50 (-log10 mol/L) of 4 or more.
A) -1

Q) Say whether `Oc1c(Cl)cc(Cl)c(Cl)c1Cc1c(O)c(Cl)cc(Cl)c1Cl` shows 96 h LC50 (-log10 mol/L) of 4 or more.
A) 1

Q) Say whether `CCCCCC(=O)OCC` shows 96 h LC50 (-log10 mol/L) of 4 or more.
A) 1

Q) Say whether `CCCCCCCCCCCCCN` shows 96 h LC50 (-log10 mol/L) of 4 or more.
A) 1

Q) Say whether `Cc1ccncc1` shows 96 h LC50 (-log10 mol/L) of 4 or more.
A) -1

Q) Say whether `CCOC(=O)/C=C/C(=O)OCC` shows 96 h LC50 (-log10 mol/L) of 4 or more.
A) 1

Q) Say whether `C=CC(=C)C` shows 96 h LC50 (-log10 mol/L) of 4 or more.
A) -1

Q) Say whether `Brc1nc(Br)c(Br)[nH]1` shows 96 h LC50 (-log10 mol/L) of 4 or more.
A) 1

Q) Say whether `O=Cc1cccc([N+](=O)[O-])c1` shows 96 h LC50 (-log10 mol/L) of 4 or more.
A) 1

Q) Say whether `CCc1ccc(C)nc1` shows 96 h LC50 (-log10 mol/L) of 4 or more.
A) -1

Q) Say whether `ClC1=C(Cl)[C@]2(Cl)[C@H]3[C@H]([C@@H]4C=C[C@H]3C4)[C@@]1(Cl)C2(Cl)Cl` shows 96 h LC50 (-log10 mol/L) of 4 or more.
A) 1

Q) Say whether `OCCN1CCNCC1` shows 96 h LC50 (-log10 mol/L) of 4 or more.
A) -1

Q) Say whether `CC(=O)CC(C)C` shows 96 h LC50 (-log10 mol/L) of 4 or more.
A) -1

----------
Could you please report measured 48 h IGC50 (-log10 mol/L) for the items listed next?
tested on: Tetrahymena pyriformis; test: 48 h IGC50 (-log10 mol/L); higher = more toxic
Keep the answer to the number alone.

Q) Dear colleague, I am looking for the recorded 48 h IGC50 (-log10 mol/L) of the following compound: `CCC/C=C/C(C)=O`
A) 3.7

Q) Dear colleague, I am looking for the recorded 48 h IGC50 (-log10 mol/L) of the following compound: `Cc1ccc2ccccc2c1C=O`
A) 4.23

Q) Dear colleague, I am looking for the recorded 48 h IGC50 (-log10 mol/L) of the following compound: `C=C(C)CCO`
A) 1.82

Q) Dear colleague, I am looking for the recorded 48 h IGC50 (-log10 mol/L) of the following compound: `CCCCCCOC(=O)c1ccccc1`
A) 4.94

Q) Dear colleague, I am looking for the recorded 48 h IGC50 (-log10 mol/L) of the following compound: `Oc1ccccc1`
A) 2.65

Q) Dear colleague, I am looking for the recorded 48 h IGC50 (-log10 mol/L) of the following compound: `Nc1cc(Cl)ccc1O`
A) 3.78

Q) Dear colleague, I am looking for the recorded 48 h IGC50 (-log10 mol/L) of the following compound: `O=Cc1ccc(Cl)c([N+](=O)[O-])c1`
A) 4.19

Q) Dear colleague, I am looking for the recorded 48 h IGC50 (-log10 mol/L) of the following compound: `Fc1ccccn1`
A) 1.8

Q) Dear colleague, I am looking for the recorded 48 h IGC50 (-log10 mol/L) of the following compound: `COC(=O)CCC(=O)OC`
A) 1.94

Q) Dear colleague, I am looking for the recorded 48 h IGC50 (-log10 mol/L) of the following compound: `O=[N+]([O-])c1ccc(Cl)nc1`
A) 3.8

Q) Dear colleague, I am looking for the recorded 48 h IGC50 (-log10 mol/L) of the following compound: `Cc1ccc([N+](=O)[O-])cc1C`
A) 3.59

Q) Dear colleague, I am looking for the recorded 48 h IGC50 (-log10 mol/L) of the following compound: `C=CCCCO`
A) 1.78

Q) Dear colleague, I am looking for the recorded 48 h IGC50 (-log10 mol/L) of the following compound: `CC#CC(=O)OC`
A) 3.4

Q) Dear colleague, I am looking for the recorded 48 h IGC50 (-log10 mol/L) of the following compound: `O=Cc1ccccc1F`
A) 3.08

Q) Dear colleague, I am looking for the recorded 48 h IGC50 (-log10 mol/L) of the following compound: `N#Cc1c(O)ccc(O)c1C#N`
A) 2.56

Q) Dear colleague, I am looking for the recorded 48 h IGC50 (-log10 mol/L) of the following compound: `CCN(CC)C(=O)CCl`
A) 3.52

Q) Dear colleague, I am looking for the recorded 48 h IGC50 (-log10 mol/L) of the following compound: `c1ccsc1`
A) 1.56

Q) Dear colleague, I am looking for the recorded 48 h IGC50 (-log10 mol/L) of the following compound: `CCC=C(C)C=O`
A) 2.98

Q) Dear colleague, I am looking for the recorded 48 h IGC50 (-log10 mol/L) of the following compound: `CCOC(=O)Cc1cccs1`
A) 3.27

Q) Dear colleague, I am looking for the recorded 48 h IGC50 (-log10 mol/L) of the following compound: `CCOC(=O)c1ccc(F)cc1`
A) 3.01

Q) Dear colleague, I am looking for the recorded 48 h IGC50 (-log10 mol/L) of the following compound: `Nc1c([N+](=O)[O-])cc(Cl)cc1[N+](=O)[O-]`
A) 4.15

Q) Dear colleague, I am looking for the recorded 48 h IGC50 (-log10 mol/L) of the following compound: `Cc1cc[nH]c(=O)c1[N+](=O)[O-]`
A) 2.5

Q) Dear colleague, I am looking for the recorded 48 h IGC50 (-log10 mol/L) of the following compound: `N#Cc1cccc(N)c1`
A) 2.53

Q) Dear colleague, I am looking for the recorded 48 h IGC50 (-log10 mol/L) of the following compound: CC(Br)C#N (stereo not drawn)
A) 3.63

Q) Dear colleague, I am looking for the recorded 48 h IGC50 (-log10 mol/L) of the following compound: `Cc1cnc2ccccc2n1`
A) 3.02

Q) Dear colleague, I am looking for the recorded 48 h IGC50 (-log10 mol/L) of the following compound: `CCCOS(=O)OCCC`
A) 3.09

Q) Dear colleague, I am looking for the recorded 48 h IGC50 (-log10 mol/L) of the following compound: `Brc1ccccn1`
A) 2.46

Q) Dear colleague, I am looking for the recorded 48 h IGC50 (-log10 mol/L) of the following compound: `O=Cc1cc(O)ccc1O`
A) 3.28

Q) Dear colleague, I am looking for the recorded 48 h IGC50 (-log10 mol/L) of the following compound: `O=C1C=CCC1`
A) 3.64

Q) Dear colleague, I am looking for the recorded 48 h IGC50 (-log10 mol/L) of the following compound: `N#Cc1cc(Br)c(O)c(Br)c1`
A) 4.16

Q) Dear colleague, I am looking for the recorded 48 h IGC50 (-log10 mol/L) of the following compound: `CC(=O)c1ccc(Cl)cc1Cl`
A) 3.62

Q) Dear colleague, I am looking for the recorded 48 h IGC50 (-log10 mol/L) of the following compound: `Oc1cccc(O)c1`
A) 2.35

Q) Dear colleague, I am looking for the recorded 48 h IGC50 (-log10 mol/L) of the following compound: `O=C(O)c1c(Cl)cc(Cl)cc1Cl`
A) 2.59

Q) Dear colleague, I am looking for the recorded 48 h IGC50 (-log10 mol/L) of the following compound: `NC(=O)c1ccccc1O`
A) 2.76

Q) Dear colleague, I am looking for the recorded 48 h IGC50 (-log10 mol/L) of the following compound: `C/C=C/C(=O)OC`
A) 2.08

Q) Dear colleague, I am looking for the recorded 48 h IGC50 (-log10 mol/L) of the following compound: `CCCCCCC=O`
A) 3

Q) Dear colleague, I am looking for the recorded 48 h IGC50 (-log10 mol/L) of the following compound: `Cc1cc([N+](=O)[O-])ccc1N`
A) 3.49

Q) Dear colleague, I am looking for the recorded 48 h IGC50 (-log10 mol/L) of the following compound: `Oc1c(-c2ccccc2)cccc1-c1ccccc1`
A) 5.11

Q) Dear colleague, I am looking for the recorded 48 h IGC50 (-log10 mol/L) of the following compound: `CCCCC(=O)OCCC`
A) 3.01

Q) Dear colleague, I am looking for the recorded 48 h IGC50 (-log10 mol/L) of the following compound: `Cc1cccc(N)c1`
A) 2.72

Q) Dear colleague, I am looking for the recorded 48 h IGC50 (-log10 mol/L) of the following compound: CCCC(Br)C(=O)O (stereo not drawn)
A) 2.96

Q) Dear colleague, I am looking for the recorded 48 h IGC50 (-log10 mol/L) of the following compound: `CCCCCCCCCN`
A) 4.7

Q) Dear colleague, I am looking for the recorded 48 h IGC50 (-log10 mol/L) of the following compound: `Cc1ccc2ccccc2c1`
A) 4.08

Q) Dear colleague, I am looking for the recorded 48 h IGC50 (-log10 mol/L) of the following compound: `NNC(=O)CCCCC(=O)NN`
A) 1.63

Q) Dear colleague, I am looking for the recorded 48 h IGC50 (-log10 mol/L) of the following compound: `COC(=O)c1ccc(OC)cc1O`
A) 3.62

Q) Dear colleague, I am looking for the recorded 48 h IGC50 (-log10 mol/L) of the following compound: `Nc1c(Br)cc(Br)cc1[N+](=O)[O-]`
A) 4.62

Q) Dear colleague, I am looking for the recorded 48 h IGC50 (-log10 mol/L) of the following compound: `Cc1ccc(O)c(C)c1`
A) 3.14

Q) Dear colleague, I am looking for the recorded 48 h IGC50 (-log10 mol/L) of the following compound: `Cc1cc(C)c(C#N)c(=O)[nH]1`
A) 2.3

Q) Dear colleague, I am looking for the recorded 48 h IGC50 (-log10 mol/L) of the following compound: `CCOC(=O)c1ccc(C)cc1`
A) 3.68

Q) Dear colleague, I am looking for the recorded 48 h IGC50 (-log10 mol/L) of the following compound: CCCC(N)CO (stereo not drawn)
A) 2.33

Q) Dear colleague, I am looking for the recorded 48 h IGC50 (-log10 mol/L) of the following compound: `Nc1ccc(Cl)c(Cl)c1`
A) 4.37

Q) Dear colleague, I am looking for the recorded 48 h IGC50 (-log10 mol/L) of the following compound: `COC(=O)C=C(C)C`
A) 1.94

Q) Dear colleague, I am looking for the recorded 48 h IGC50 (-log10 mol/L) of the following compound: `CCC(=O)C(=O)CC`
A) 2.99
